# TARGET_DESC: hTLR8 (Homo sapiens)
# Sequence (Q9NR97 27-1041): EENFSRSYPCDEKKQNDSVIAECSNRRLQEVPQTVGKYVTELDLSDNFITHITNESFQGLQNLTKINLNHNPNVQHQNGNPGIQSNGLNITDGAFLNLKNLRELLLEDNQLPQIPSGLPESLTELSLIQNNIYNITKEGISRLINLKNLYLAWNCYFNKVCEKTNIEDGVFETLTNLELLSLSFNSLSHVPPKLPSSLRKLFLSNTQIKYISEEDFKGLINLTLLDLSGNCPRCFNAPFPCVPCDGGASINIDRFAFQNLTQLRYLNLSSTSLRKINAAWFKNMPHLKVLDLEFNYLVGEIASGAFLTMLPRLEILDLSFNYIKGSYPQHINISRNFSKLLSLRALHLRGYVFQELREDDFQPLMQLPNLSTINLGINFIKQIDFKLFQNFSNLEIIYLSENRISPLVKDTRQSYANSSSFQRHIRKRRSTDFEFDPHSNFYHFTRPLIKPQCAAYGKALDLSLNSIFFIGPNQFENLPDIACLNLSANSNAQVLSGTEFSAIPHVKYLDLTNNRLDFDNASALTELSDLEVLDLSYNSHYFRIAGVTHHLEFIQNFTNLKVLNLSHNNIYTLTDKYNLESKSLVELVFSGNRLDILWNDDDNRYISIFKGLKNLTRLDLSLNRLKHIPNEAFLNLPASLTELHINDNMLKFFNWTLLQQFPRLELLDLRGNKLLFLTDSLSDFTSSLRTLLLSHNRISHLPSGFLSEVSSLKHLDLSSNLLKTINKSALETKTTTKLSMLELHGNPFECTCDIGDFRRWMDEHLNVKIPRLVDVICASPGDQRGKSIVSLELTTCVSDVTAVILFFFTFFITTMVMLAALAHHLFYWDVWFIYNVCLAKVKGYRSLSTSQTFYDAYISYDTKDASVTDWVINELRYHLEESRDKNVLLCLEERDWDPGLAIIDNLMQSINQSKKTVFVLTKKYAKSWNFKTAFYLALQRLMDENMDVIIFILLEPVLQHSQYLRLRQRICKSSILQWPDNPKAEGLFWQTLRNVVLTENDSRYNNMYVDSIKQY
# METHOD_SUMMARY: Human TLR8 Reporter Assay
# TEST_SETTINGS: HEK-Blue hTLR8 cells, 16 hours, normalized to tl8-506 (1 μM) and DMSO
pEC50: −log10 of the molar value.
MEASUREMENT_LABEL: pEC50

COMPOUND	RELATION_SYMBOL	RECORDED_RESULT
CCCCNc1nc(N)nc2cn(Cc3ccc(C(C)N(C)CCC)cc3OC)nc12 (stereo not shown) [Compound 233]	=	6.34
CCCCNc1nc(N)nc2cn(Cc3ccc(CC(C)N)cc3OC)nc12 (stereo not shown) [Compound 176]	=	6.33
CCCCNc1nc(N)nc2cn(Cc3ccc(N4CCNCC4)cn3)nc12	=	6.06
COc1cccc(OC)c1Cn1cc2nc(N)nc(NCCCC(C)C)c2n1	<	4.52
CCCCNc1nc(N)nc2cn(Cc3ncc(CN4C(=O)C=CC4=O)cc3OC)nc12	=	5.43
CCCCNc1nc(N)nc2cn(Cc3nccnc3OC)nc12	=	6.22
CCC[C@@H](CO)Nc1nc(N)nc2cn(Cc3ccc(CN4CC(CN)C4)cc3OC)nc12	=	5.93
C=CCN(C)Cc1cc(OC)c(Cn2cc3nc(N)nc(NC(C)CCC)c3n2)c(OC)c1 (stereo not shown)	=	6.75
CCCCNc1nc(N)nc2cn(Cc3ccc(OC)cc3)nc12	=	5.77
COc1ccccc1Cn1cc2nc(N)nc(N3CCC(CO)C3)c2n1 (stereo not shown)	<	4.52
COc1cccc(OC)c1Cn1cc2nc(N)nc(NCCC(C)O)c2n1 (stereo not shown) [Compound 52]	<	4.52
CCCCNc1nc(N)nc2cn(Cc3ccc(CN4CC(N)C4)cc3OC)nc12	=	6.07
CCC[C@@H](CO)Nc1nc(N)nc2cn(Cc3ccc(N4CCNCC4)cc3OC)nc12	=	5.79
CCCCNc1nc(N)nc2cn(Cc3ccc(C4CCCN4)cc3)nc12 (stereo not shown) [Compound 204]	=	6.27
CCCCNc1nc(N)nc2cn(Cc3ccc(C4CCCN4)cc3OC)nc12 (stereo not shown) [Compound 239]	=	5.59
CCCCNc1nc(N)nc2cn(Cc3ccc(C4CCNC4=O)cc3)nc12 (stereo not shown) [Compound 202]	=	5.46
CCCCNc1nc(N)nc2cn(Cc3nnco3)nc12	=	5.09
CCCCNc1nc(N)nc2cn(Cc3cc(CN)ccc3OC)nc12	=	6.20
CCCCNc1nc(N)nc2cn(Cc3ncc(CN4CCNCC4)cc3OC)nc12	=	5.30

Hello, the source for this data is patent US20230219962A1, in case you need it.
